Reference source for all entries: patent US7138361B2

Readings of Plant response rating, Pigweed for the listed compounds
Tested on: pigweed (Amaranthus retroflexus)
testProtocol: Test C postemergence
Format: in vivo
measurementSetup: Rate 62 g/ha, scale 0 to 100

[
  {
    "compound": "COc1cc(N2CCC(n3ccc(C(C)C)n3)C2=O)ccc1C (stereo not drawn) [Compound 85]",
    "Plant response rating, Pigweed": 60
  },
  {
    "compound": "COc1cc(N2CCC(n3ccc(C(C)(C)C)n3)C2=O)ccc1Cl (stereo not drawn) [Compound 117]",
    "Plant response rating, Pigweed": 60
  },
  {
    "compound": "CCCC(C)c1ccn(C2CCN(c3ccc(Cl)c(OC)c3)C2=O)n1 (stereo not drawn) [Compound 121]",
    "Plant response rating, Pigweed": 20
  },
  {
    "compound": "COc1cc(N2CCC(n3ccc(C(C)(C)C)n3)C2=O)ccc1Br (stereo not drawn) [Compound 141]",
    "Plant response rating, Pigweed": 70
  },
  {
    "compound": "CCCC(C)c1ccn(C2OCN(c3cccc(OC(F)(F)F)c3)C2=O)n1 (stereo not drawn) [Compound 91]",
    "Plant response rating, Pigweed": 70
  },
  {
    "compound": "CCC(CC)c1ccn(C2OCN(c3cccc(OC(F)F)c3)C2=O)n1 (stereo not drawn) [Compound 131]",
    "Plant response rating, Pigweed": 20
  },
  {
    "compound": "CCC(C)c1ccn(C2CCN(c3ccc(C)c(OC)c3)C2=O)n1 (stereo not drawn) [Compound 80]",
    "Plant response rating, Pigweed": 20
  },
  {
    "compound": "CCC(C)c1ccn(C2CCN(c3ccc(Cl)c(OC)c3)C2=O)n1 (stereo not drawn) [Compound 119]",
    "Plant response rating, Pigweed": 40
  },
  {
    "compound": "CCC(C)c1ccn(C2SCN(c3cccc(OC(F)(F)F)c3)C2=O)n1 (stereo not drawn) [Compound 40]",
    "Plant response rating, Pigweed": 0
  }
]
